The values you see were collected from ChEMBL document CHEMBL1201862.

Biological target: Large T antigen (Simian virus 40);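 note: Confirmatory-stage PubChem screen for compounds that inhibit SV40 T antigen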
Sequence (P03070 whole entry): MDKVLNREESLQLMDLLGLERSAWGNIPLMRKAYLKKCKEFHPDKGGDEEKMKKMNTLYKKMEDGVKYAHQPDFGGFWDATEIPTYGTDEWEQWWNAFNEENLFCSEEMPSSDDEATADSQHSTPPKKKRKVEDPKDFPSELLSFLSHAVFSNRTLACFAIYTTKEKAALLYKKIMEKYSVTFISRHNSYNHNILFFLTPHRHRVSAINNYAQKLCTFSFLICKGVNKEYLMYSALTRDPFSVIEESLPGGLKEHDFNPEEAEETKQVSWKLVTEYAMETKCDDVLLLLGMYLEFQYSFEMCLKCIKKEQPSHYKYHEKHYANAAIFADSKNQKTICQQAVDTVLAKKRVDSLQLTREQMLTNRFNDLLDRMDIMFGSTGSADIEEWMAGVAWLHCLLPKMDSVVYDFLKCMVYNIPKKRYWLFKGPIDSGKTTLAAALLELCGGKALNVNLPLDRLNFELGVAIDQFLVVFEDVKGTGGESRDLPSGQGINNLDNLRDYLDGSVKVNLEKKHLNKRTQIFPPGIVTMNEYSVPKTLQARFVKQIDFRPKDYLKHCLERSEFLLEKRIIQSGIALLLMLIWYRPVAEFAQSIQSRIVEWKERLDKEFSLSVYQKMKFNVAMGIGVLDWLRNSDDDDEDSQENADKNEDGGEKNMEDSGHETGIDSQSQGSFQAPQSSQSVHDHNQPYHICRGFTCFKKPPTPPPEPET
Format: functional, Betapolyomavirus macacae
Activity calls are given as the source filed them.
Entries and their measured IC50 follow.
quantityMeasured: IC50

# molecularString, systemName, result
records = [
    ("COc1cc(/C=C2/C(=O)NN(c3ccc(Cl)cc3)C2=O)ccc1OC(=O)c1ccco1", "Large T antigen (Simian virus 40)", "21.6 µM (active)"),
    ("O=C(CN1CCN(S(=O)(=O)c2ccc(F)cc2)CC1)c1ccc(O)c(O)c1", "Large T antigen (Simian virus 40)", "6.55 µM (active)"),
    ("COc1cc(O)ccc1C(=O)CCc1ccc(O)cc1", "Large T antigen (Simian virus 40)", "13.3 µM (active)"),
    ("O=C1ON=C(c2ccccc2)/C1=C/c1ccc(-c2ccccc2[N+](=O)[O-])o1", "Large T antigen (Simian virus 40)", "52.8 µM (active)"),
    ("N#CCn1c(CCl)nc2ccccc2c1=O", "Large T antigen (Simian virus 40)", "15.1 µM (active)"),
]

* * *

AC50 listing for selected compounds.
Target: UniProt:P9WQ59
Sequence (P9WQ59 whole entry): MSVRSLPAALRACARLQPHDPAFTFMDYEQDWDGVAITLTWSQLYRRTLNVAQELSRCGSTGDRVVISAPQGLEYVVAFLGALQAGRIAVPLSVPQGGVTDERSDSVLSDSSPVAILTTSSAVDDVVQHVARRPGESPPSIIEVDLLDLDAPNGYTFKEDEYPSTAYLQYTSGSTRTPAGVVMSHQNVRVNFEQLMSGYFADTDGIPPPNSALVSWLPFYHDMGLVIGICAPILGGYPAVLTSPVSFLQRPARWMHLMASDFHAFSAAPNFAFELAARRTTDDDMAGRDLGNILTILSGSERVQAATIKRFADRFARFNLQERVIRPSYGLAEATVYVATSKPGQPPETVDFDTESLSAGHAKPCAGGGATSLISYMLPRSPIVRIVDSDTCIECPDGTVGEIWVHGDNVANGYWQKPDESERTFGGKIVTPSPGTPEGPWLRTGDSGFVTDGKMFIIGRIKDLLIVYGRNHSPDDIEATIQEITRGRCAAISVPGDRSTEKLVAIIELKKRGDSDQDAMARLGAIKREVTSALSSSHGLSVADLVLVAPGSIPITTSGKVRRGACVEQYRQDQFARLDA
Experiment: Fluorescence polarization aasay to screen for inhibitors that compete for the binding of FadD28 to a bisubstrate Measured in Biochemical System Using Plate Reader - 2147-01_Inhibitor_Dose_CherryPick_Activity.
Assay type: functional, Mycobacterium tuberculosis H37Rv
Activity calls are given as the source filed them.

# compound, systemName, AC50
measured = [
    ("CCn1cc(CN2CCC(C(=O)Nc3ccc(Oc4cccnc4)cc3)CC2)cn1", "UniProt:P9WQ59", "37.3 µM (active)"),
    ("CCOC(=O)N1CCN(S(=O)(=O)c2ccc(C(=O)NNc3nc4c(C)cccc4s3)cc2)CC1", "UniProt:P9WQ59", "22.1 µM (active)"),
    ("Cc1ccc(C2CC(=O)N3CN(Cc4ccco4)CSC3=C2C#N)cc1 (stereo not given)", "UniProt:P9WQ59", "82.5 µM (active)"),
    ("Cc1nn(-c2cccc3ccccc23)c(O)c1/C=N/c1sc2c(c1C#N)CCC2", "UniProt:P9WQ59", "91.8 µM (active)"),
    ("Cc1cccc(NC(=O)CN2C(=O)N/C(=C/c3cc(C)n(C(C)C)c3C)C2=O)c1", "UniProt:P9WQ59", "7.01 µM (active)"),
]

* * *

Target: Eukaryotic translation initiation factor 4H (Homo sapiens, UniProt Q15056)
Assay: human eIF4H binding inhibitors, primary screen, translation initiation inhibitor project, biochemical, uHTS, fluorescence polarization (AID 2012)
Calls of active or inactive are those of the source.
Possible outcomes: T for active, F for inactive

# compound, assignedCategory
data = [
    ("CC(C)C[C@H](NC(=O)C1CC(=O)N(c2ccc3c(c2)OCO3)C1)C(=O)NCc1ccco1 (stereo not given in full)", "T"),
    ("CCc1cc2c(=O)c(-c3nc4ccccc4n3C)coc2c(CN2CCCCC2C)c1O (stereo not given)", "T"),
    ("C[n+]1cccc(/C=N/NC(=O)CC23CC4CC(CC(C4)C2)C3)c1", "F"),
    ("CCN1C(NCCc2cccnc2)=N[C@@H](c2ccccc2)C(C(=O)OC)=C1C", "F"),
    ("COC(=O)c1c(Sc2ccccc2)c2ccccc2n1C", "F"),
]

* * *

Molecular target: Sentrin-specific protease 7 (Homo sapiens);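 note: Luminescence-based dose-response confirmation of ultra-high-throughput screening hits, measuring inhibition of SENP7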
Sequence (Q9BQF6 whole entry): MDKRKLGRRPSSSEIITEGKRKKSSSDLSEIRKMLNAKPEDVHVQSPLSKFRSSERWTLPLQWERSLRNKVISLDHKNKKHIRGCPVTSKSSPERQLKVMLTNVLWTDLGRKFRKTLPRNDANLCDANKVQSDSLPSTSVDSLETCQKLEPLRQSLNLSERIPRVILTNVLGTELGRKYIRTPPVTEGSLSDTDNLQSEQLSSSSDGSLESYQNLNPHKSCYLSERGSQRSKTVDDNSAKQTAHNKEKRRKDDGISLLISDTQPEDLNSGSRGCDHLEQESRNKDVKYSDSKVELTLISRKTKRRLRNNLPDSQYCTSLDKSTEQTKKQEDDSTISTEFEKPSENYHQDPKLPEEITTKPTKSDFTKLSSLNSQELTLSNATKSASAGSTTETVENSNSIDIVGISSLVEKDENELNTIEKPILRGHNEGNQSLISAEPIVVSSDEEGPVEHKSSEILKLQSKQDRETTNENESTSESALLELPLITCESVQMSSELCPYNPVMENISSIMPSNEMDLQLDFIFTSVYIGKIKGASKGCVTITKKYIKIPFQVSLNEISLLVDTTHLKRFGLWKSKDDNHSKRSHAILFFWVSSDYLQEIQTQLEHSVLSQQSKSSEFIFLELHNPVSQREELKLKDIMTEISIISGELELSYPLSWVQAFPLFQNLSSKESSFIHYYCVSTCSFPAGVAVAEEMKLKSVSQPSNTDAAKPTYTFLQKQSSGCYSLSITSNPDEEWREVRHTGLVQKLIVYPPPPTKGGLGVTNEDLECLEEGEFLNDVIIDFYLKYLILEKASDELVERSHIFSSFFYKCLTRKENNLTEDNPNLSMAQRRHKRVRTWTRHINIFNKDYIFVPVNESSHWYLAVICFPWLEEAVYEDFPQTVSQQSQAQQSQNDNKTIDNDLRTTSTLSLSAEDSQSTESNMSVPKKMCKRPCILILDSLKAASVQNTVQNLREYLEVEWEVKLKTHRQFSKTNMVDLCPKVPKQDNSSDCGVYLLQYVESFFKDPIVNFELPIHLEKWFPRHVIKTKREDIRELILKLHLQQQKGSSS
Type: functional
Calls of active or inactive are those of the source.

# molecularString, IC50
records = [
    ("Cc1n[nH]c(O)c1N=Nc1ccc(Br)c(Cl)c1", "2.2 µM (active)"),
    ("CN(C)c1ccc(-c2nnc(-c3cccs3)o2)cc1", "12.9 µM (active)"),
    ("O=C1c2ccccc2C(=O)N1CCSc1ccccc1", "9.56 µM (active)"),
    ("C=CCNC1=C(Cl)C(=O)c2ccccc2C1=O", "23.9 µM (active)"),
    ("Cc1[nH]n(-c2ccccc2)c(=O)c1N=Nc1cccc(C(=O)O)c1", "15.2 µM (active)"),
]

* * *

Tested on: P388/ADR
Assay: cells
Assay type: functional
Conditions: Mus musculus
Active and inactive are the calls of the source.
Classes used: True for active, False for inactive

# compound, assignedCategory
records = [
    ("NC(=O)c1[nH]nc(C2OC(CO)C(O)C2O)c1O (stereo not given)", "True"),
    ("CC12CCC3C(CCC4=CC(O)CCC43C=O)C1(O)CCC2c1ccc(=O)oc1 (stereo not given)", "True"),
    ("CC1(C)N=C(N)N=C(N)N1c1ccc(CCCCc2ccc(S(=O)(=O)F)cc2Cl)c(Cl)c1", "True"),
    ("NC(Cc1cc(I)c(O)c(I)c1)C(=O)O (stereo not given)", "False"),
    ("COc1ccc2nc3c(C(=O)NCCN(C)C)cccc3cc2c1", "True"),
]

* * *

The entries below are paired with their reported EC50.
Molecular target: Protein RecA (Mycobacterium tuberculosis)
Assay: Fluorescence Cell-Free Homogeneous Dose Retest to Identify Inhibitors of RecA-Intein Splicing Activity. [Related pubchem assays (depositor defined):AID2097, AID2223, AID489010, AID492950]
Format: functional
Calls of active or inactive are those of the source.

# molecule, EC50
rows = [
    ("CCOc1ccc(NC(=O)C(c2ccccn2)N(C(=O)CCl)c2ccc(F)cc2)cc1 (stereo unspecified)", "2.67 µM (active)"),
    ("NS(=O)(=O)c1ccc(NN=C2C(=O)NC(=S)NC2=O)cc1", "15.5 µM (active)"),
    ("Cc1cc(Br)c2c(c1)/C(=C/C(=O)c1cccs1)C(=O)N2", "3.27 µM (active)"),
    ("COc1cccc(C(c2c(C)[nH]n(-c3ccccc3)c2=O)c2c(C)[nH]n(-c3ccccc3)c2=O)c1O", "0.829 µM (active)"),
    ("Cc1ccc(C(=O)c2coc3cc([N+](=O)[O-])c(O)c([N+](=O)[O-])c23)cc1", "9.46 µM (active)"),
    ("CCCSc1nnc(Sc2nnnn2-c2ccccc2)s1", "14.5 µM (active)"),
    ("N#CCn1c(CCl)nc2ccccc2c1=O", "7.2 µM (active)"),
    ("O=C(NCc1cccnc1)/C(=C\\c1ccc(-c2cccc(Cl)c2)o1)S(=O)(=O)c1ccccc1", "17.8 µM (active)"),
    ("CC(=O)Nc1ccc(NC(=O)CSc2ncc(C(=O)Nc3ccccc3)c(=O)n2C)cc1", "0.043 µM (active)"),
    ("C=CCNC1=C(Cl)C(=O)c2ccccc2C1=O", "10.4 µM (active)"),
    ("O=C1/C(=C/c2ccc(F)cc2)SC(=S)N1CC(=O)N1CCCCC1c1cccnc1 (stereo unspecified)", "30.3 µM (active)"),
    ("COCc1n[nH]c2c1C(c1ccc(OC)c(OC)c1)C(C#N)=C(N)O2 (stereo unspecified)", "6.25 µM (active)"),
    ("COc1cc(/C=N/NC(=O)CC2(C)OCCCO2)ccc1OCc1ccccc1", "0.81 µM (active)"),
    ("CCOC(=O)C(C(=O)OCC)c1cc(Br)c2noc3c2c1C(=O)c1ccccc1-3", "0.393 µM (active)"),
    ("CC(=O)n1cc(N(C(=O)CCl)c2ccccc2)c2ccccc21", "0.347 µM (active)"),
    ("Cc1nn(Cc2ccccc2)c2c1C(c1ccncc1)C(C#N)=C(N)O2 (stereo unspecified)", "3.43 µM (active)"),
]

* * *

Target: Rac GTPase-activating protein 1 (Homo sapiens, UniProt Q9H0H5)
Sequence (Q9H0H5 whole entry): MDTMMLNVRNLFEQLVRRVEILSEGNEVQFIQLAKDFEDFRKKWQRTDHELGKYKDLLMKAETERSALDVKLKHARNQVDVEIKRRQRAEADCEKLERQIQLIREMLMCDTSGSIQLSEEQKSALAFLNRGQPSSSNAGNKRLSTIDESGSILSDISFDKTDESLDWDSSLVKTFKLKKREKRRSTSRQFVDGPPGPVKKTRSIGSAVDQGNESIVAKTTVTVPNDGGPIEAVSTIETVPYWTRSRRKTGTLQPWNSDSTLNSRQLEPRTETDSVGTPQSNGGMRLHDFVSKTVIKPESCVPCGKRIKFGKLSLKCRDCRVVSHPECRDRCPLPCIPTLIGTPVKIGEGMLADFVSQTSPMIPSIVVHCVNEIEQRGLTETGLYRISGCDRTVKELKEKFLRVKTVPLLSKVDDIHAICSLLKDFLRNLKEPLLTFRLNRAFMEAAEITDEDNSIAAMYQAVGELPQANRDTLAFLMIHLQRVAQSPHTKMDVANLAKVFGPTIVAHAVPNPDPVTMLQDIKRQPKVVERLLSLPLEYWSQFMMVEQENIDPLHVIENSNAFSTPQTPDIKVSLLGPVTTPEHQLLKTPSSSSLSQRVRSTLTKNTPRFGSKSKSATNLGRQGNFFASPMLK
Assay: MgcRacGAP GTPase-activating activity inhibitors, confirmation, biochemical, ADP Hunter fluorescence, primary and confirmatory (AID 624330)
Type: functional
Calls of active or inactive are those of the source.
quantityMeasured: IC50

# compound, result
measured = [
    ("COc1ccc(-n2cccc2/C=C/[N+](=O)[O-])cc1", "44 µM (active)"),
    ("C[C@]12CC[C@H]3C(=CCc4cc(O)ccc43)[C@@H]1CCC2=O [EQUILIN]", "94.6 µM (active)"),
    ("Cc1ccccc1CN(C)CCc1ccccn1", "123 µM (active)"),
    ("CCOc1cc(/C=N/NC(=O)CCn2nc(C)cc2C)ccc1O", "61.5 µM (active)"),
    ("CS(=O)(=O)c1ccc2c(c1)SC1=NC(=O)/C(=C/c3ccc(O)c(O)c3)C(=N)N12", "38.1 µM (active)"),
    ("COc1cc2c(cc1N=C(S)Nc1cccc(C(F)(F)F)c1)oc1ccccc12", "225 µM (active)"),
    ("COc1ccc(-c2ncc3ccccn23)cc1OC", "126 µM (active)"),
    ("CCOc1cc(/C=C(\\C#N)c2n[nH]c(N)c2C#N)ccc1O", "17.1 µM (active)"),
    ("Cc1ccc2c(C)c3ccc4ccccc4c3c[n+]2c1.[O-][Cl+3]([O-])([O-])[O-]", "48 µM (active)"),
    ("Cc1ccc2oc(=O)c(/C=C(\\O)c3ccccc3)nc2c1", "48.6 µM (active)"),
    ("O=[N+]([O-])c1ccccc1Nc1ccc(O)cc1", "22.6 µM (active)"),
]
